I'd be grateful if you could share measured z-score for these entries.
test: basal S. cerevisiae growth modulation, no modifier, primary screen, OD600, strain BY4716, 24 h, basal condition (AID 1173); settings: OD600, 24 h, higher = more signal, called active from +8 up or from −8 down
Activity calls are given as the source filed them.

Incoming: So what does the record say about z-score for COCCOC(=O)N1C(=O)[C@@]2(c3cc(C#CC4=CCCCC4)ccc31)[C@H](c1ccc(O)cc1)N1[C@H](c3ccccc3)[C@H](c3ccccc3)OC(=O)[C@H]1[C@@H]2C(=O)N1CCN(c2ncccn2)CC1 ?
Outgoing: 0.343 (inactive)

Incoming: Item under review: CO[C@H]1O[C@H](CO)[C@@H](OC(=O)Nc2ccc3c(c2)OCO3)[C@H](OC(=O)c2cc3ccccc3[nH]2)[C@H]1OC(=O)c1cc2ccccc2[nH]1 . Reported z-score?
Outgoing: -0.237 (inactive)

Incoming: // z-score lookup, key: COC(=O)[C@@]1(Cc2ccc(OC)cc2)[C@@H]2C(=CC(=O)[C@H]2CC(=O)C(=O)N(C)C)CN1C(=O)c1ccccc1
Outgoing: 1.61 (inactive)

Incoming: Returns the measured z-score for the input compound. Input: O=C1O[C@H](c2ccccc2)[C@H](c2ccccc2)N2[C@H]1[C@@H](C(=O)NC[C@H](O)c1ccccc1)[C@]1(C(=O)Nc3ccc(C#CCCO)cc31)[C@H]2c1ccc(OCCO)cc1
Outgoing: 1.62 (inactive)

Incoming: Quick check: z-score of C=CCC(OC(C)=O)[C@@H]1[C@@H](N(Cc2cc3ccccc3o2)C(=O)Cc2ccc(F)cc2)c2cc(OCCCO)ccc2N1C(=O)c1ccc2ccccc2c1 (stereo partly specified) ?
Outgoing: 0.615 (inactive)

Incoming: May I ask what z-score has been recorded for C=CCC(OC(C)=O)[C@@H]1[C@@H](N(Cc2cc3ccccc3o2)C(=O)c2ccc(C)cc2)c2cc(OCCCO)ccc2N1C(=O)Cc1ccc(OC)cc1 (stereo partly specified) ?
Outgoing: -0.859 (inactive)

====

biological target: Dickkopf-related protein 1 (Homo sapiens); test: DKK1 binders on small-molecule microarrays, primary screen, biochemical, small-molecule microarray, 635 nm fluorescence scan (AID 1106); settings: DKK1 binding, higher = more signal;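 further: score merges emission near 667 nm with signal to noise over three replicate slides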
OBSERVABLE: composite z-score
Simply state the number, no unit and no words.

Incoming: Which composite z-score is listed for C=CC1c2cc(O)c(OC)cc2CCN1Cc1cc2c(cc1Br)OCO2 (stereo not given) ?
Outgoing: 0.565

Incoming: Please report the recorded composite z-score for COC(=O)C(CC#Cc1ccc2c(c1)[C@]1(C(=O)N2)[C@H](c2ccccc2OCCO)N2[C@H](c3ccccc3)[C@H](c3ccccc3)OC(=O)[C@H]2[C@@H]1C(=O)NC[C@H](O)c1ccccc1)C(=O)OC .
Outgoing: 0.521

Incoming: Param item = CC(C)C(CO)N1C(=O)[C@@H]2C3C(=O)OCCC/C=C\[C@H]3OC23C=CCN(C(C)(C)C)C(=O)[C@@H]13 (stereo not given in full) ; retrieve measured composite z-score.
Outgoing: -0.268

Incoming: Returns the measured composite z-score for the input compound. Input: C=CCOC(=O)[C@H]1[C@@H]2C(=O)O[C@@H](c3ccccc3)[C@@H](c3ccccc3)N2[C@@H](c2ccc(OCCOC(=O)[C@H]3C[C@H]4C(=O)N[C@@H](CC(C)C)C(=O)N4[C@H]3c3cccc(OCCO)c3)cc2)[C@]12C(=O)Nc1ccc(I)cc12
Outgoing: 0.963

Incoming: Returns the measured composite z-score for the input compound. Input: CO[C@H]1O[C@H](CO)[C@@H](OC(=O)Nc2ccc3c(c2)OCO3)[C@H](OC(=O)c2cc3ccccc3[nH]2)[C@H]1OC(=O)c1cc2ccccc2[nH]1
Outgoing: 0.283

Incoming: Can you look up the measured composite z-score of O=C1O[C@@H](c2ccccc2)[C@@H](c2ccccc2)N2[C@@H](c3ccc(OCCO)cc3)[C@]3(C(=O)Nc4ccccc43)[C@@H](C(=O)O)[C@H]12 for me?
Outgoing: -0.32

Incoming: For the compound [N-]=[N+]=NCc1ccccc1C[C@@]1(C(=O)N2CCOCC2)N=C(c2ccc(OCCCO)cc2)O[C@@H]1c1ccccc1 , what composite z-score is on record?
Outgoing: -0.519

Incoming: Need composite z-score, item CN1C(=O)C2C=CC(C(O)C#Cc3ccccc3)N(Nc3ccccc3)C2C1=O (stereo not given)
Outgoing: -0.184

Incoming: Value lookup for composite z-score; key = COc1cccc(/C=C/C=O)c1
Outgoing: 0.339

Incoming: So what's the measured composite z-score for this one? COc1cc(OC)c(C(O)C2C=CC3C(=O)N(c4ccccc4)C(=O)C3N2Nc2ccccc2)cc1Br (stereo not given)
Outgoing: -0.386

Incoming: Which composite z-score is listed for C=CCC(OC(C)=O)[C@@H]1[C@@H](N(Cc2cccc3ccccc23)C(=O)c2cccc3ccccc23)c2cc(OCCCO)ccc2N1C(=O)c1ccc(-c2ccccc2)cc1 (stereo not given in full) ?
Outgoing: 0.0116

Incoming: I am curious: what composite z-score value has been reported for [N-]=[N+]=NCc1ccccc1C[C@@]1(C(=O)N2CCCCC2)N=C(c2ccc(OCCCO)cc2)O[C@@H]1c1ccccc1 ?
Outgoing: -0.849

Incoming: Data request, read-out composite z-score, for O=C1O[C@H](c2ccccc2)[C@H](c2ccccc2)N2[C@H]1[C@@H](C(=O)Nc1nc3ccccc3s1)[C@]1(C(=O)Nc3ccccc31)[C@H]2c1ccc(OCCO)cc1
Outgoing: 1.31

Incoming: Entry C=C[C@@H](COC(C)=O)N(C(=O)OC(C)(C)C)S(=O)(=O)c1ccc(Br)cc1 : reported composite z-score = ?
Outgoing: 2.14

Incoming: I am curious: what composite z-score value has been reported for COc1ccc(CCNC(=O)[C@@]2(Sc3ccc(C)cc3)CC(=O)N(C3Cc4ccccc4C3)[C@@H]2c2ccc(CO)cc2)cc1 ?
Outgoing: 2.06

Incoming: Param item = CN(C)CCCNC(=O)[C@@H]1c2ccccc2C(=O)N(Cc2ccccc2Cl)[C@H]1c1ccc(CO)cc1 ; retrieve measured composite z-score.
Outgoing: 0.0146

Incoming: Query: composite z-score; subject: COC(=O)[C@@]1(Cc2ccc(OC)cc2)[C@@H]2C(=CC(=O)[C@H]2CC(=O)C(=O)N(C)C)CN1C(=O)c1ccccc1
Outgoing: -0.568

Incoming: // composite z-score lookup, key: CC(=O)NCCCC[C@@H]1NC(=O)[C@H]2C[C@@H](C(=O)NCCCC[N+](C)(C)C)[C@@H](c3cccc(OCCO)c3)N2C1=O
Outgoing: 1.83

Incoming: Given the entry C=C(C)c1cc2c(c(CCCCCC)n1)[Si](C(C)C)(C(C)C)OC2 , report its measured composite z-score.
Outgoing: -1.31

Incoming: Quick check: composite z-score of CCCCCCCCCCC(O)C1C=CC2C(=O)N(C)C(=O)C2N1NC(=O)OC(C)(C)C (stereo not given) ?
Outgoing: -0.145

Incoming: Which composite z-score reading was recorded for the compound [N-]=[N+]=NCc1ccccc1C[C@]1(C(N)=O)N=C(c2ccc(OCCCO)cc2)O[C@H]1c1ccccc1 ?
Outgoing: -1.14

Incoming: Entry C=CCNC(=O)[C@H]1[C@@H]2C(=O)O[C@@H](c3ccccc3)[C@@H](c3ccccc3)N2[C@@H](c2ccc(O)cc2)[C@]12C(=O)N(C(=O)OCCOC)c1ccccc12 : reported composite z-score = ?
Outgoing: 0.298

Incoming: Please give the measured composite z-score for this compound: C=CCC(OC(C)=O)[C@@H]1[C@@H](N(Cc2cc3ccccc3o2)C(=O)c2ccc(C)cc2)c2cc(OCCCO)ccc2N1C(=O)Cc1ccc(OC)cc1 (stereo not given in full)
Outgoing: 0.0807

Incoming: Return reported composite z-score; argument: CCCNC(=O)[C@@]1(c2ccc([N+](=O)[O-])cc2)CC(=O)N(C2CCCCC2)[C@@H]1c1ccc(CO)cc1
Outgoing: 0.301

Incoming: I have this compound here, CCCC[C@@H]1C[C@H]1[C@@H](NC(=O)Cc1ccccc1)c1ccc(-c2ccccc2)cc1 , and I need its recorded composite z-score.
Outgoing: -0.46

Incoming: Data request, read-out composite z-score, for O=C(NCCCCCNC(=O)/C(Cc1ccccc1)=N/O)OCc1ccccc1
Outgoing: 0.229

Incoming: Please look up its composite z-score: COC(=O)c1c(CC[C@@H](CO)NC(=O)N2CCC[C@H]2Cn2cc(Cc3ccccc3)nn2)oc(C(C)=O)c1C(=O)OC
Outgoing: 0.135

Incoming: Which composite z-score is reported for this compound? CCCCC(O)C1C=CC2C(=O)N(c3ccccc3)C(=O)C2N1Nc1ccc(C(C)C)cc1 (stereo not given)
Outgoing: 0.223

Incoming: Endpoint output: composite z-score of CCOC(=O)C[C@H]1[C@H](OC(=O)c2cc3ccccc3oc2=O)[C@@H](NC(=O)c2ccc(-c3ccccc3)cc2)c2cc(OCCCO)ccc2N1C(=O)c1ccccc1 . Value?
Outgoing: 1.22

Incoming: Need composite z-score, item CCOC(=O)C1CCCCN1 (stereo not given)
Outgoing: 0.516
